- measurement.notes: qHTS Assay for inhibitors of the human cytomegalovirus (HCMV); further: on the % scale 0 is the no-effect control and ±100 the full control effect
- condition.details: HFF cells, HCMV-luciferase reporter, 72 h; at 57.5 µM; stronger effect = lower value
The whole screen tested about 410,000 compounds, of which about 18,000 (4.4%) were called active. Not shown: some 7% with an inconclusive outcome. For the sample, actives were picked, then their nearest neighbours and some compounds at random.
observed.property: activity change, negative = inhibition (%)

[
  {
    "compound": "CCOC(=O)c1ccc(NC(=O)CCS(=O)(=O)c2ccc(C)cc2)cc1",
    "endpoint.value": 0
  },
  {
    "compound": "CC(=O)c1ccc(N2CCN(c3nc4c(S(=O)(=O)c5ccccc5)nnn4c4ccc(Cl)cc34)CC2)cc1",
    "endpoint.value": 8.15
  },
  {
    "compound": "O=C(O)CSc1nccn1-c1cccc(Cl)c1",
    "endpoint.value": -24.9
  },
  {
    "compound": "Cc1cccc(Nc2nc(C)nc(N)c2S(=O)(=O)c2ccccc2)c1",
    "endpoint.value": 0.44
  },
  {
    "compound": "CNC(=O)c1ccc(-c2nc(CN3CCc4ccccc43)c(C)o2)cc1",
    "endpoint.value": 18.4
  },
  {
    "compound": "N#Cc1cccc(NC(=O)N[C@H]2CC[C@@]34CCCN3C(=O)CCC[C@H]4C2Cc2ccccc2)c1 (stereo not given in full)",
    "endpoint.value": 0.85
  },
  {
    "compound": "O=S(=O)(c1ccc(Br)cc1)c1nnn2c1nc(NC1CCCCCC1)c1sccc12",
    "endpoint.value": -2.26
  },
  {
    "compound": "C[C@@H]1CN([C@H](C)CO)C(=O)CCCn2cc(nn2)CO[C@H]1CN(C)C(=O)Nc1ccc(N2CCCCC2)cc1",
    "endpoint.value": 5.98
  },
  {
    "compound": "CCN(CC)CCNC(=O)CN1N=C(c2ccc(OC)cc2)CCC1=O",
    "endpoint.value": 29.3
  },
  {
    "compound": "Cc1cc(C)cc(NC(=O)Cn2nc(N3CCN(c4ccccc4)CC3)ccc2=O)c1",
    "endpoint.value": -10.6
  }
]

meta.source: PubChem BioAssay AID1259415
